- target: Recombinant autotaxin (Homo sapiens)
- test_protocol: Autotaxin assay (Amplex Red, LPC substrate)
- setup_conditions: recombinant autotaxin, LPC substrate, Amplex Red detection; values given as upper bounds
measurement_type: IC50

Cc1ccc(COC(=O)N2CCN(C3CCN(C(=O)c4ccc5[nH]nnc5c4)CC3)CC2)cc1C(F)(F)F = < 10 µM
CC(C)c1ccc(CCC(=O)N2CCC(N3CCN(C(=O)c4ccc5[nH]nnc5c4)CC3)CC2)cc1 = < 1 µM
O=C(Nc1cc(Cl)cc(Cl)c1)N1CCN(C2CCN(C(=O)c3ccc4[nH]nnc4c3)CC2)CC1 = < 30 µM

---

# reported IC50; entries follow
- target: Recombinant autotaxin (Homo sapiens, UniProt Q13822)
- test_protocol: Autotaxin assay (Amplex Red, LPC substrate)
- setup_conditions: recombinant autotaxin, LPC substrate, Amplex Red detection; values given as upper bounds
measurement_type: IC50

O=C(Nc1ccc2[nH]nnc2c1)c1ccc(N2CCN(C(=O)OCc3ccc(C(F)(F)F)cc3)CC2)nc1 [Compound 111] = < 10 µM
O=C(OCc1cc(C(F)(F)F)cc(C(F)(F)F)c1)N1CCC(N2CCN(C(=O)c3ccc4[nH]nnc4c3)CC2)CC1 [Compound 162] = < 1 µM
O=C(OCc1ccc(C(F)(F)F)c(Cl)c1)N1CCN(C2CCN(C(=O)c3ccc4[nH]nnc4c3)CC2)CC1 [Compound 96] = < 1 µM
O=C(CCc1ccc(Cl)cc1F)N1CCC(N2CCN(C(=O)c3ccc4[nH]nnc4c3)CC2)CC1 [Compound 61] = < 10 µM

Taken from patent US9452997B2.
